B1: LOC100129726 (parent)
chain: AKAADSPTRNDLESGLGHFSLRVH

Variants of: B1
Assay: protein stability index of a GFP-peptide fusion (GPS, HEK-293T) (PSI 1-6); higher = more stable;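 note: lentivirally expressed fusions sorted by FACS into six bins by GFP to DsRed ratio, PSI derived from sequencing read proportions per bin multiplied by bin number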
Conditions: c terminus: a fixed tail appended
Reported values of protein stability index for individual entries
QUANTITY_NAME: protein stability index

construct_sequence="AKAADSPTRNDLESGRGHFSLRVH [L16R]" recorded_number=3.78
construct_sequence="HKAADSPTRNDLESGLGHFSLRVH [A1H]" recorded_number=3.27
construct_sequence="AKAADSPTENDLESGLGHFSLRVH [R9E]" recorded_number=3.95
construct_sequence="AKAADSPTRNDLESGDGHFSLRVH [L16D]" recorded_number=3.82
construct_sequence="ARAADSPTRNDLESGLGHFSLRVH [K2R]" recorded_number=3.38
construct_sequence="AKAADSPTRNDLESPLGHFSLRVH [G15P]" recorded_number=2.79
construct_sequence="AKAADSPTRNDLESGLGCFSLRVH [H18C]" recorded_number=3.2
construct_sequence="AKAADSPTRNDLESGLGHFWLRVH [S20W]" recorded_number=2.25
construct_sequence="AKKADSPTRNDLESGLGHFSLRVH [A3K]" recorded_number=3.23
construct_sequence="AKAADSPTRNKLESGLGHFSLRVH [D11K]" recorded_number=2.72
construct_sequence="AKAADSPTRNDIESGLGHFSLRVH [L12I]" recorded_number=3
construct_sequence="AKCADSPTRNDLESGLGHFSLRVH [A3C]" recorded_number=2.73
construct_sequence="AKAADSPTRNNLESGLGHFSLRVH [D11N]" recorded_number=2.47
construct_sequence="AKAADSPTRNDYESGLGHFSLRVH [L12Y]" recorded_number=1.93
construct_sequence="AKAADSPTQNDLESGLGHFSLRVH [R9Q]" recorded_number=3.22
construct_sequence="AKAADSPTRNDLESCLGHFSLRVH [G15C]" recorded_number=2.18
construct_sequence="AKAADSPTRNDLESGLGHFSLRVN [H24N]" recorded_number=4.15
construct_sequence="AKAADSPTRNDLASGLGHFSLRVH [E13A]" recorded_number=2.26
construct_sequence="AKAADSPTCNDLESGLGHFSLRVH [R9C]" recorded_number=3.04
construct_sequence="AKAADSPTRNDLELGLGHFSLRVH [S14L]" recorded_number=2.57
construct_sequence="AKAADSPQRNDLESGLGHFSLRVH [T8Q]" recorded_number=3.1
construct_sequence="AKAADSPTRTDLESGLGHFSLRVH [N10T]" recorded_number=2.79
